- Measured Target: Butyrylcholinesterase (BuChE) (Rattus norvegicus, UniProt Q9JKC1)
- Sequence (Q9JKC1 whole entry): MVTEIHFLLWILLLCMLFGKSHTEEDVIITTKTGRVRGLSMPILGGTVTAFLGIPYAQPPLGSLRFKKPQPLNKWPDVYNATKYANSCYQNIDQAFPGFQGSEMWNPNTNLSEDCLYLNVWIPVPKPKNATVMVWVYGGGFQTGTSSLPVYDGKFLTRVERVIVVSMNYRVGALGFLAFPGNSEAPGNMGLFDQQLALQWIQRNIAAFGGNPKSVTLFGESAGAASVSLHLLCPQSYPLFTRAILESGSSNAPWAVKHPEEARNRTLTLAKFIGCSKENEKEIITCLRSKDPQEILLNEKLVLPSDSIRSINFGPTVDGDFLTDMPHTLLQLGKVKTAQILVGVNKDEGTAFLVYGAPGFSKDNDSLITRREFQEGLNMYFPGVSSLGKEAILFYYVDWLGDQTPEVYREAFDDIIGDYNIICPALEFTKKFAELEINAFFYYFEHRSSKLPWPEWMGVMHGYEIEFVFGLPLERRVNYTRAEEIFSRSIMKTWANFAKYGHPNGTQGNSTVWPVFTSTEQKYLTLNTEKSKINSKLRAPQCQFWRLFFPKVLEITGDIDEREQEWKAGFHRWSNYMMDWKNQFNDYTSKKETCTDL
- Assay Notes: Inhibition of BuChE in rat serum at 50 uM using S-butylthiocholine iodide as substrate by Ellman's method relative to control
- Format: cell-free
- Condition Set: probe S-butylthiocholine iodide
Readout Kind: inhibition at 50 µM (%)
Provide the reading as a plain figure in %.

Would you please look over these solved cases?
COc1cc2c(cc1OC)/C(=C\CCCCCN(C)Cc1ccccc1)OC2=O	17.6
CCN(CCC/C=C1\OC(=O)c2cc(OC)c(OC)cc21)Cc1ccccc1	17.3
CCN(CCCCCCC1OC(=O)c2cc(OC)c(OC)cc21)Cc1ccccc1N(C)C (stereo not drawn)	40.5
COc1cc2c(cc1OC)/C(=C\CCCN(C)Cc1ccccc1)OC2=O	27.3
CCN(CCC/C=C1/OC(=O)c2cc(OC)c(OC)cc21)Cc1ccccc1N(C)C	43.1
COc1ccccc1CN(C)CCC/C=C1/OC(=O)c2cc(OC)c(OC)cc21	21.9
CCN(CCC/C=C1\OC(=O)c2cc(OC)c(OC)cc21)Cc1ccccc1OC	18.7
CCN(CCC/C=C1/OC(=O)c2cc(OC)c(OC)cc21)Cc1ccccc1OC	19.1
COc1cc2c(cc1OC)/C(=C/CCCN1CCCCC1)OC2=O	21.9
COc1cc2c(cc1OC)/C(=C\CCCN1CCCCC1)OC2=O	26.9

Exercise: Using the record for CCN(CCCCC/C=C1/OC(=O)c2cc(OC)c(OC)cc21)Cc1ccccc1N(C)C , state its measured inhibition at 50 µM.
Solution: 35.2

Exercise: Using the record for CCN(CCC/C=C1\OC(=O)c2cc(OC)c(OC)cc21)Cc1ccccc1N(C)C , state its measured inhibition at 50 µM.
Solution: 40.5

Exercise: Using the record for CCN(CC)CCCCC1OC(=O)c2cc(OC)c(OC)cc21 (stereo not drawn) , state its measured inhibition at 50 µM.
Solution: 5.1
